Target: UniProtKB Q16769
Assay: Inhibitor assay for glutaminyl cyclase activity (fluorometric, H-Gln-βNA / H-Gln-AMC)
Type: biochemical
Conditions: read-out: IC50
Protocol: All measurements were performed with a BioAssay Reader HTS-7000Plus for microplates (Perkin Elmer) at 30° C. QC activity was evaluated fluorometrically using H-Gln-βNA. […] QC activity was determined from a standard curve of β-naphthylamine under assay conditions. […] In a second fluorometric assay, QC activity was determined using H-Gln-AMC as substrate. Reactions were carried out at 30° C. utilizing the NOVOStar reader for microplates (BMG labtechnologies). […]
pIC50: −log10 of the molar value.
ENDPOINT NAME: pIC50

Worked examples, 2 compounds total:
O=C1C(O)=C(c2c[nH]c3ccccc23)C(CO)N1CCCn1ccnc1 (stereo not shown) [Compound 138]	7.40
O=C1C(O)=C(c2ccccc2)C(c2ccccc2O)N1CCCn1ccnc1 (stereo not shown) [Compound 87]	5.51

[I] CCCCCC1=C(O)C(=O)N(CCCn2ccnc2)C1Cc1ccccc1 (stereo not shown) [Compound 206]
[II] O=C(C1=C(O)C(=O)N(c2ccc3[nH]cnc3c2)C1c1ccc2nsnc2c1)C1CC1 (stereo not shown) [Compound 287]
Could you please tell me which of these two has the higher pIC50: I or II ? Record your answer as the label of the chosen record. II

---

target: hQC (Homo sapiens, UniProt Q16769); assay: Inhibitor assay for glutaminyl cyclase activity (fluorometric, H-Gln-βNA / H-Gln-AMC); format: biochemical; conditions: read-out: IC50
Sequence (Q16769 29-361): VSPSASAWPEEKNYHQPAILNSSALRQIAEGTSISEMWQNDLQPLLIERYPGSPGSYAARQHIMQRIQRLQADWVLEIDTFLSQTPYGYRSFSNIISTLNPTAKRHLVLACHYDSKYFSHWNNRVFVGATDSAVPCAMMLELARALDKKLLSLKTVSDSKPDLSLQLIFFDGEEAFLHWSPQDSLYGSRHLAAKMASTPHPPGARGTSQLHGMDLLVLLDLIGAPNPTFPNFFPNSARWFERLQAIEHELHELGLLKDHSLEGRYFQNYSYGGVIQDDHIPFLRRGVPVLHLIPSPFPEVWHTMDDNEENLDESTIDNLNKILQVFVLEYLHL
pIC50: −log10 of the molar value.
ENDPOINT NAME: pIC50

CCCCCC1=C(O)C(=O)N(CCCn2ccnc2)C1/C=C/C(C)C (stereo not shown) [Compound 190]	6.40

[a] O=C1C(O)=C(c2c[nH]c3ccccc23)C(c2cccc(Cl)c2)N1CCCn1ccnc1 (stereo not shown) [Compound 143]
[b] CCCC(=O)C1=C(O)C(=O)N(c2ccc3[nH]cnc3c2)C1c1cccc(C)n1 (stereo not shown) [Compound 334]
[c] Cc1ccc2occ(C3C(c4ccc(O)cc4)=C(O)C(=O)N3c3ccc4[nH]cnc4c3)c(=O)c2c1 (stereo not shown) [Compound 280]
[d] O=C1C(O)=C(F)C(c2ccccc2F)N1c1ccc2[nH]cnc2c1 (stereo not shown) [Compound 462]
Reorder: pIC50, max to min. Ranked list of labels, please, in the requested order. a, c, b, d
(a: 7.40, c: 6.51, b: 5.58, d: 5.30)

[a] Cc1ccc(C2C(c3ccccc3)=C(O)C(=O)N2CCCn2ccnc2)cc1 (stereo not shown) [Compound 77]
[b] CCC1=C(O)C(=O)N(CCCn2ccnc2)C1c1cc(Cl)cc(Cl)c1O (stereo not shown) [Compound 220]
Of a versus b , which is the one with smaller reported pIC50? Record your answer as the label of the chosen record. b
(b: 5.66, a: 7.40)

---

Target: hQC (Homo sapiens)
Assay: Inhibitor assay for glutaminyl cyclase activity (fluorometric, H-Gln-βNA / H-Gln-AMC)
Type: biochemical
Details: read-out: IC50
Method: All measurements were performed with a BioAssay Reader HTS-7000Plus for microplates (Perkin Elmer) at 30° C. QC activity was evaluated fluorometrically using H-Gln-βNA. […] QC activity was determined from a standard curve of β-naphthylamine under assay conditions. […] In a second fluorometric assay, QC activity was determined using H-Gln-AMC as substrate. Reactions were carried out at 30° C. utilizing the NOVOStar reader for microplates (BMG labtechnologies). […]
ENDPOINT NAME: IC50 (µM)

O=C(O)CC1=C(O)C(=O)N(c2ccc3[nH]cnc3c2)C1c1csc2ccccc12 (stereo not shown)	6.43
O=C1C(O)=C(c2ccc(O)cc2)C(c2c(O)ccc3ccccc23)N1CCCn1ccnc1 (stereo not shown)	1.3

[A] Cc1ccc2c(C3C(c4ccc(O)cc4)=C(O)C(=O)N3CCCn3ccnc3)c[nH]c2c1 (stereo not shown)
[B] O=C1C(O)=C(c2cccc(O)c2)C(C(O)CO)N1CCCn1ccnc1 (stereo not shown)
Could you please tell me which of these two has the higher IC50: A or B ? Record your answer as the label of the chosen record. B

---

Target: hQC (Homo sapiens, UniProt Q16769)
Test: Inhibitor assay for glutaminyl cyclase activity (fluorometric, H-Gln-βNA / H-Gln-AMC)
Type: biochemical
Details: read-out: IC50
Experimental: All measurements were performed with a BioAssay Reader HTS-7000Plus for microplates (Perkin Elmer) at 30° C. QC activity was evaluated fluorometrically using H-Gln-βNA. […] QC activity was determined from a standard curve of β-naphthylamine under assay conditions. […] In a second fluorometric assay, QC activity was determined using H-Gln-AMC as substrate. Reactions were carried out at 30° C. utilizing the NOVOStar reader for microplates (BMG labtechnologies). […]
pIC50: −log10 of the molar value.
ENDPOINT NAME: pIC50

Worked examples, 2 molecules total:
CC(=O)C1=C(O)C(=O)N(c2ccc3[nH]cnc3c2)C1C1CC1 (centres unmarked) [Compound 266]	5.64
CC1=C(O)C(=O)N(c2ccc3nc[nH]c3c2)C1c1cccc(F)c1F (centres unmarked) [Compound 467]	7.28

[a] CCC1=C(O)C(=O)N(CCCn2ccnc2)C1C1CC1 (centres unmarked) [Compound 246]
[b] Cc1cc(C2C(C(=O)C3CC3)=C(O)C(=O)N2c2ccc3[nH]cnc3c2)cc(C)c1O (centres unmarked) [Compound 342]
Of a versus b , which is the one with smaller reported pIC50? Record your answer as the label of the chosen record. a

---

molecular target: hQC (Homo sapiens, UniProt Q16769); assay: Inhibitor assay for glutaminyl cyclase activity (fluorometric, H-Gln-βNA / H-Gln-AMC); assay type: biochemical; conditions: read-out: IC50
pIC50: −log10 of the molar value.
ENDPOINT NAME: pIC50

Worked examples, 10 molecules total:
CC(C)/C=C/C1C(c2ccc(O)cc2)=C(O)C(=O)N1CCCn1ccnc1 (stereo not shown)	5.66
CCCC1C(C)=C(O)C(=O)N1CCCn1ccnc1 (stereo not shown)	5.31
O=C1C(O)=C(c2ccccc2)C(c2ccc3[nH]ccc3c2)N1CCCn1ccnc1 (stereo not shown)	7.40
O=C(O)CC1=C(O)C(=O)N(c2ccc3[nH]cnc3c2)C1c1cccc(F)c1 (stereo not shown)	5.34
CCC1=C(O)C(=O)N(CCCn2ccnc2)C1c1ccc2[nH]ccc2c1 (stereo not shown)	7.40
CCCCCC1=C(O)C(=O)N(CCCn2ccnc2)C1CC (stereo not shown)	5.89
CC(=O)C1=C(O)C(=O)N(c2ccc3[nH]cnc3c2)C1c1ccco1 (stereo not shown)	5.62
O=C(C1=C(O)C(=O)N(c2ccc3[nH]cnc3c2)C1c1ccc2nonc2c1)C1CC1 (stereo not shown)	8.40
CCCCCC1=C(O)C(=O)N(CCCn2ccnc2)C1c1ccc(C)cc1 (stereo not shown)	7.40
CCC1=C(O)C(=O)N(CCCn2ccnc2)C1c1ccco1 (stereo not shown)	5.89

[P] O=C1C(O)=C(c2cccc(O)c2)C(c2ccc3nsnc3c2)N1c1ccc2[nH]cnc2c1 (stereo not shown)
[Q] COc1ccc(C2C(C)=C(O)C(=O)N2CCCn2ccnc2)cc1 (stereo not shown)
Of P versus Q , which is the one with smaller reported pIC50? Record your answer as the label of the chosen record. Q

---

biological target: hQC (Homo sapiens, UniProt Q16769); experiment: Inhibitor assay for glutaminyl cyclase activity (fluorometric, H-Gln-βNA / H-Gln-AMC); format: biochemical; details: read-out: IC50
ENDPOINT NAME: IC50 (nM)

CCCCCC(=O)C1=C(O)C(=O)N(c2ccc3[nH]cnc3c2)C1c1cccc(C)c1 (stereo not shown)	1390
CC(C)C1=C(O)C(=O)N(c2ccc3[nH]cnc3c2)C1c1ccc(O)c(Br)c1 (stereo not shown)	1480
CC(=O)C1=C(O)C(=O)N(c2ccc3[nH]cnc3c2)C1c1ccc(C(=O)O)o1 (stereo not shown)	1030

[1] CCC1=C(O)C(=O)N(CCCn2ccnc2)C1c1ccc(C)o1 (stereo not shown)
[2] O=C1C(O)=C(c2ccc(O)cc2)C(c2ccccc2)N1CCCn1ccnc1 (stereo not shown)
[3] CC(C)/C=C/C1C(c2cccc(O)c2)=C(O)C(=O)N1CCCn1ccnc1 (stereo not shown)
[4] O=C1C(O)=C(c2ccc(O)cc2)C(c2ccccn2)N1CCCn1ccnc1 (stereo not shown)
Reorder: IC50, max to min. Ranked list of labels, please, in the requested order. 3, 1, 4, 2
(3: 5800 nM, 1: 2200 nM, 4: 400 nM, 2: 40 nM)

[a] O=C1C(O)=C(c2ccccc2)C(C2CC2)N1CCCn1ccnc1 (stereo not shown)
[b] CC1=C(O)C(=O)N(CCCn2ccnc2)C1Cc1ccccc1 (stereo not shown)
Could you please tell me which of these two has the higher IC50: a or b ? Record your answer as the label of the chosen record. b

---

target: hQC (Homo sapiens); assay: Inhibitor assay for glutaminyl cyclase activity (fluorometric, H-Gln-βNA / H-Gln-AMC); type: biochemical; settings: read-out: IC50
ENDPOINT NAME: IC50 (nM)

Worked examples, 5 compounds total:
CCC1=C(O)C(=O)N(c2ccc3[nH]cnc3c2)C1c1cc(C)c(C)o1 (stereo not drawn) [Compound 340]	3370
O=C1C(O)=C(c2ccc(O)cc2)C(c2ccccc2F)N1CCCn1ccnc1 (stereo not drawn) [Compound 180]	40
CC1=C(O)C(=O)N(c2ccc3[nH]cnc3c2)C1c1c[nH]c2cc(C)ccc12 (stereo not drawn) [Compound 436]	490
O=C(O)CC1=C(O)C(=O)N(c2ccc3[nH]cnc3c2)C1c1ccnc2ccccc12 (stereo not drawn) [Compound 297]	2380
Cc1ccc(C2C(c3c[nH]c4ccccc34)=C(O)C(=O)N2CCCn2ccnc2)cc1C (stereo not drawn) [Compound 123]	40

[A] O=C1C(O)=C(c2ccccc2)C(C(F)(F)F)N1CCCn1ccnc1 (stereo not drawn) [Compound 96]
[B] Cc1[nH]c2ccccc2c1C1C(C(=O)C2CC2)=C(O)C(=O)N1c1ccc2[nH]cnc2c1 (stereo not drawn) [Compound 298]
Could you please tell me which of these two has the higher IC50: A or B ? Record your answer as the label of the chosen record. B
